Test: qHTS assay to identify small molecule agonists of the RXR signaling pathway - cell viability counter screen (AID 1159529); note: nearly all actives have a fitted effect of over 50% in size
Settings: RXR-alpha-bla HEK293T viability, CellTiter-Glo, 16 h; series mostly up to 76.8 µM
Source text: National Center for Advancing Translational Sciences [NCATS] NIH Chemical Genomics Center [NCGC] U.S. Environmental Protection Agency [EPA] National Institutes of Environmental Health Sciences [NIEHS] National Toxicology Program [NTP] U.S. Food and Drug Administration [FDA] The Retinoid X receptor (RXR), a nuclear hormone receptor expressed in liver, spleen, placenta, epidermis, central nervous system. […]
Records with an inconclusive call do not appear. Calls of active or inactive are those of the source. Calls come from the whole dose curve; as a rule, active = well fitted cell-killing curve with a large enough effect in the repeat runs; inconclusive = weak or mixed curves, or effect the other way; inactive = no such curve, though single readings can be large or run the other way.
Select the correct class. Options are YES for active, NO for inactive and nothing else.

Worked cases, answers included:
CN1Cc2cc(C(=O)N3CCC(C4CCNCC4)CC3)ccc2N[C@@H](CC(=O)O)C1=O	NO
CCCCC(CC)COC(=O)COc1ccc(Cl)cc1C (configuration not stated)	NO
Cc1cc(O)c2c(O)c3c(O)cccc3cc2c1	NO
ON(Cc1ccccc1)Cc1ccccc1	NO
CN1CCN(CCCN2c3ccccc3Sc3ccc(S(=O)(=O)N(C)C)cc32)CC1	YES

**Q:** Call for entry CCOC(=O)c1ccccc1OC :
**A:** NO

**Q:** So what was the verdict on Cc1nc2ccccn2c(=O)c1CCN1CCC(C(=O)c2ccc(F)cc2)CC1 in this test?
**A:** NO

**Q:** # fetch the recorded call for CC(C)(O)c1ccccc1CC[C@@H](SCC1(CC(=O)O)CC1)c1cccc(/C=C/c2ccc3ccc(Cl)cc3n2)c1 here
**A:** NO

**Q:** Just curious, what result did CC(=O)OCC(=O)[C@@]12OC(C)(C)O[C@@H]1C[C@H]1[C@@H]3C[C@H](F)C4=CC(=O)C=C[C@]4(C)[C@@]3(F)[C@@H](O)C[C@@]12C get here?
**A:** NO

**Q:** Which outcome was entered for the molecule CO/N=C1\CN(c2nc3c(cc2F)c(=O)c(C(=O)O)cn3C2CC2)CC1CN (configuration not stated) in this test?
**A:** NO

**Q:** Look up the recorded call for O=C(CCCCCCCCC#CI)Oc1ccccc1 in this test.
**A:** NO

**Q:** Per the records of this test, what outcome belongs to COC(=O)c1cc(S(N)(=O)=O)ccc1OC ?
**A:** NO
